assay: stability testing in intestinal perfusate; format: in vitro ADME; conditions: male, Sprague Dawley, rat, intestinal (jejunal) perfusate, pH 6.5, rat; read-out: t1/2 in intestinal perfusate (converted)
Where a SMILES comes first, the peptide text is derived from it.
Reported property: half-life at 0.1 mg/ml
Hey, just the number and the unit after it is fine.

Need half-life at 0.1 mg/ml of N=C(N)NCCC[C@@H](N)C(=O)N1[C@H](C(=O)N2CCC[C@H]2C(=O)NCC(=O)N[C@@H](Cc2ccccc2)C(N)=O)C[C@@H]2CCCC[C@@H]21 [rOicPGF, D-Arg-Oic-Pro-Gly-Phe, reference compound] (HELM PEPTIDE1{[dR].[O=C([C@@H]1C[C@@H]2CCCC[C@@H]2N1[*:1])[*:2]].P.G.F.[am]}$$$$V2.0) , thanks.
2 h

###

test: stability testing in intestinal homogenate; assay type: in vitro ADME; conditions: male, Sprague Dawley, intestinal homogenate, pH 6.5; rat, 37° C.; read-out: t1/2 (min) Intestinal Homogenate
Where a SMILES comes first, the peptide text is derived from it.
Reported property: half-life at 0.1 mg/ml (min)
Value expressed in min; do not type the unit.

Need half-life at 0.1 mg/ml of N=C(N)NCCC[C@@H](N)C(=O)N1[C@H](C(=O)N2CCC[C@H]2C(=O)NCC(=O)N[C@@H](Cc2ccccc2)C(N)=O)C[C@@H]2CCCC[C@@H]21 [rOicPGF, D-Arg-Oic-Pro-Gly-Phe, reference compound] (HELM PEPTIDE1{[dR].[O=C([C@@H]1C[C@@H]2CCCC[C@@H]2N1[*:1])[*:2]].P.G.F.[am]}$$$$V2.0) , thanks.
40.3

###

experiment: stability testing in intestinal homogenate; format: in vitro ADME; conditions: male, Sprague Dawley, intestinal (jejunal) homogenate, pH 6.5; rat, 37° C.; read-out: t1/2 (min) Intestinal Homogenate
Where a SMILES comes first, the peptide text is derived from it.
Reported property: half-life at 0.1 mg/ml (min)
Value expressed in min; do not type the unit.

Need half-life at 0.1 mg/ml of Cc1ccc(C[C@H](NC(=O)[C@@H](C)NC(=O)[C@@H]2CCCN2C(=O)[C@@H]2C[C@@H]3CCCC[C@@H]3N2C(=O)[C@H](N)CCCN=C(N)N)C(N)=O)cc1 [rOicPaF(p-Me), D-Arg-Oic-Pro-D-Ala-Phe(p-Me)] (HELM PEPTIDE1{[dR].[O=C([C@@H]1C[C@@H]2CCCC[C@@H]2N1[*:1])[*:2]].P.[dA].[Cc1ccc(C[C@H](N[*:1])C(=O)[*:2])cc1].[am]}$$$$V2.0) , thanks.
757

###

system: normal human citrated plasma; assay: prothrombin time (PT); type: biochemical
Where a SMILES comes first, the peptide text is derived from it.
As shown below, each of these compounds has a reported peptide concentration with significant prolongation (p<0.05) of the PT value.
Value expressed in µM; do not type the unit.

Need peptide concentration with significant prolongation (p<0.05) of the PT of C[C@@H](NC(=O)[C@@H]1CCCN1C(=O)[C@@H]1C[C@@H]2CCCC[C@@H]2N1C(=O)[C@H](N)CCCNC(=N)N)C(=O)N[C@@H](Cc1ccc([N+](=O)[O-])cc1)C(N)=O [rOicPaF(p-NO2), D-Arg-Oic-Pro-D-Ala-Phe(p-NO2)] (HELM PEPTIDE1{[dR].[O=C([C@@H]1C[C@@H]2CCCC[C@@H]2N1[*:1])[*:2]].P.[dA].[O=C([C@H](Cc1ccc([N+](=O)[O-])cc1)N[*:1])[*:2]].[am]}$$$$V2.0; N-terminus assumed) , thanks.
6.25

Need peptide concentration with significant prolongation (p<0.05) of the PT of C[C@@H](NC(=O)[C@@H]1CCCN1C(=O)[C@@H]1C[C@@H]2CCCC[C@@H]2N1C(=O)[C@H](N)CCCNC(=N)N)C(=O)N[C@@H](Cc1ccc(I)cc1)C(N)=O [rOicPaF(p-I), D-Arg-Oic-Pro-D-Ala-Phe(p-I)] (HELM PEPTIDE1{[dR].[O=C([C@@H]1C[C@@H]2CCCC[C@@H]2N1[*:1])[*:2]].P.[dA].[O=C([C@H](Cc1ccc(I)cc1)N[*:1])[*:2]].[am]}$$$$V2.0; N-terminus assumed) , thanks.
6.25

Need peptide concentration with significant prolongation (p<0.05) of the PT of C[C@@H](NC(=O)[C@@H]1CCCN1C(=O)[C@@H]1C[C@@H]2CCCC[C@@H]2N1C(=O)[C@H](N)CCCNC(=N)N)C(=O)N[C@@H](Cc1ccc(Br)cc1)C(N)=O [rOicPaF(p-Br), D-Arg-Oic-Pro-D-Ala-Phe(p-Br)] (HELM PEPTIDE1{[dR].[O=C([C@@H]1C[C@@H]2CCCC[C@@H]2N1[*:1])[*:2]].P.[dA].[O=C([C@H](Cc1ccc(Br)cc1)N[*:1])[*:2]].[am]}$$$$V2.0) , thanks.
6.25

Need peptide concentration with significant prolongation (p<0.05) of the PT of Cc1ccc(C[C@H](NC(=O)[C@@H](C)NC(=O)[C@@H]2CCCN2C(=O)[C@@H]2C[C@@H]3CCCC[C@@H]3N2C(=O)[C@H](N)CCCNC(=N)N)C(N)=O)cc1 [rOicPaF(p-Me), D-Arg-Oic-Pro-D-Ala-Phe(p-Me)] (HELM PEPTIDE1{[dR].[O=C([C@@H]1C[C@@H]2CCCC[C@@H]2N1[*:1])[*:2]].P.[dA].[Cc1ccc(C[C@H](N[*:1])C(=O)[*:2])cc1].[am]}$$$$V2.0) , thanks.
1.56

###

assay: rat intestinal in situ perfusion permeability; type: in vivo; conditions: male, Sprague-Dawley, rat, other: in situ jejunal perfusion, pH 6.5, from portal vein plasma during perfusion; read-out: Permeability (mesenteric)
Where a SMILES comes first, the peptide text is derived from it.
Reported property: Papp (×10⁻⁶ cm/s)
Value expressed in ×10⁻⁶ cm/s; do not type the unit.

Need Papp of Cc1ccc(C[C@H](NC(=O)[C@@H](C)NC(=O)[C@@H]2CCCN2C(=O)[C@@H]2C[C@@H]3CCCC[C@@H]3N2C(=O)[C@H](N)CCCN=C(N)N)C(N)=O)cc1 [rOicPaF(p-Me), D-Arg-Oic-Pro-D-Ala-Phe(p-Me)] (HELM PEPTIDE1{[dR].[O=C([C@@H]1C[C@@H]2CCCC[C@@H]2N1[*:1])[*:2]].P.[dA].[Cc1ccc(C[C@H](N[*:1])C(=O)[*:2])cc1].[am]}$$$$V2.0) , thanks.
0.309
